tested on: carrageenin induced edema in rats; experiment: carrageenin induced edema test (Winter et al.); format: in vivo; details: 50 mg/kg p.o.
Label YES when % Decrease of the induced edema is at or above 30%; otherwise label NO.

Field: example entries. Status: answers known.
>>> df
                         compound  class
0    CCc1nc2c3ccccc3c(=O)n(C)c2s1     NO
1     Cc1nc2c3ccccc3c(=O)n(C)c2s1    YES
2  CCCCOc1nc2c(c(C)nn2C)c2ccccc12     NO

Req: Record CCCCn1c(=O)c2ccccc2c2nc(C)sc21 [5(N-isomer)] ; criterion: % Decrease of the induced edema no lower than 30%. Met?
Resp: NO

====

assay: Acute toxicity (LD50) in mice, i.p.; settings: mouse, in vivo, ip
Observed Property: LD50

Some entries whose results are on file:
                                   molecule  value_reported
0  CCCCOc1nc2sc(C)nc2c2ccccc12 [5(O-isomer)]       600 mg/kg
1             Cc1nn(C)c2nc(OCCO)c3ccccc3c12     > 600 mg/kg
2        CCc1nn(C)c2nc(OCC(C)=O)c3ccccc3c12     > 600 mg/kg

List LD50 for every entry below, keeping the order given.
1. CCCCOc1nc2c(c(C)nn2C)c2ccccc12
2. CCn1c(=O)c2ccccc2c2nc(C)sc21 [Example 2(N-isomer)]
3. Cc1nn(C)c2c1c1ccccc1c(=O)n2CCN1CCN(c2ccccc2)CC1.Cl
4. CCCCn1c(=O)c2ccccc2c2nc(C)sc21 [5(N-isomer)]
5. CCc1nn(C)c2nc(OCCO)c3ccccc3c12

Resp:
1: > 600 mg/kg; 2: 400 mg/kg; 3: > 600 mg/kg; 4: 600 mg/kg; 5: > 600 mg/kg

====

I'd appreciate it if you could supply LD50 values for the items below.
Experiment: Acute toxicity (LD50) in mice, oral
Conditions: mouse, in vivo, p.o.
Protocol: Moreover, they display a considerably low toxicity as, generally, their LD50 values are never lower than 600 mg/Kg when given i.p. and never lower than 1000 mg/Kg when given orally to mice.
Give bare numbers, in mg/kg.

Each of the following entries comes with a recorded value; kindly state LD50 for each.
1. CCCCOc1nc2c(c(C)nn2C)c2ccccc12
2. CCc1nc2c3ccccc3c(=O)n(C)c2s1

Resp:
1000
1000

====

Record form. Attribute: LD50. Fill in for each entry.
assay: Acute toxicity (LD50) in mice, oral; settings: mouse, in vivo, p.o.

Each compound below has a recorded value; state its LD50.
1. CCCCn1c(=O)c2ccccc2c2nc(C)sc21 [5(N-isomer)]
2. CCc1nn(C)c2nc(OCC(C)=O)c3ccccc3c12
3. Cc1nc2c3ccccc3c(=O)n(C)c2s1

Resp:
["> 1000 mg/kg", "> 1000 mg/kg", "> 1000 mg/kg"]
